Catalogue of IC50 readings, one per entry.
- Tested on: HT-29
- procedure-details: Concentration required to inhibit tumor growth in HT29, human colon adenocarcinoma cell line
- Assay type: functional, cell-based
- test-context: Homo sapiens, HT-29
measured-endpoint: IC50 (µM)

INSERT INTO measurements (structure_as_smiles, measured_endpoint, value_modifier, measurement) VALUES
  ('CCCSc1nc(COC(=O)NC)c(COC(=O)NC)n1C', 'IC50', '=', 108),
  ('CNC(=O)OCc1nc2n(c1COC(=O)NC)CCCS2', 'IC50', '>', 1000),
  ('CNC(=O)OCc1nc(SC)n(C)c1COC(=O)NC', 'IC50', '=', 162),
  ('CNC(=O)OCc1nc2n(c1COC(=O)NC)CCS2', 'IC50', '=', 108),
  ('CNC(=O)OCc1nc(Sc2ccccc2)n(C)c1COC(=O)NC', 'IC50', '>', 100);

###

- procedure-details: Concentration required to inhibit tumor growth in PSN-1, human pancreatic carcinoma cell line
- Format: functional
pIC50: −log10 of the molar value.
measured-endpoint: pIC50

INSERT INTO results (structure_as_smiles, measured_endpoint, value_modifier, measurement) VALUES
  ('CCCSc1nc(COC(=O)NC)c(COC(=O)NC)n1C', 'pIC50', '=', 3.94),
  ('CNC(=O)OCc1nc(SC)n(C)c1COC(=O)NC', 'pIC50', '=', 3.96),
  ('CNC(=O)OCc1nc2n(c1COC(=O)NC)CCS2', 'pIC50', '=', 3.93),
  ('CNC(=O)OCc1nc(Sc2ccccc2)n(C)c1COC(=O)NC', 'pIC50', '<', 4.00),
  ('CNC(=O)OCc1nc2n(c1COC(=O)NC)CCCS2', 'pIC50', '<', 3.19);
